Tested on: MS2 coat protein
Experiment: apparent KD of MS2 coat protein; designed switch direction (-1 OFF switch, 1 ON switch): 1; higher = weaker reporter binding
Details: input ligand: none
Readout Label: apparent KD of MS2 coat protein

AGAUCAUGACGAGGAUAUGCCACAUGAGGAUCACCCAUGUAUGUGGUAGGACGCGUACGUCCAAAGCAGAAGGCGUCGUGAUCA [Mat - Same State NG 2 - JL mod - D36] (Eterna round: R96, puzzle: Same State NG 2): 47.9 nM
GUGCGAGUGCCACAGGAUAUACGUGGAUCGACAUGAGGAUCACCCAUGUAUAUCCUAAUAAUUGCGUAGAAGGGUGGUCAGUCGG [Inzage] (Eterna round: R96, puzzle: Same State 2): 478 nM
UGACACACGGCAGGAUAUCGAUUGCAAAGCAAUCGAGAAGGGCCUCAUGUCGUGGAAACGUGACAUGAGGAUCACCCAUGUUGC [Omei SS(NG)1 Cv14] (Eterna round: R96, puzzle: Same State NG 1): 32.9 nM
GUGGUCAGACAUGAGGAUCACCCAUGUGGAAUAAAUAACACAGAGGAUAUGGAAUAUAAAAUAUACCAGAAGGCUGGAUUGGUG (Eterna round: R96, puzzle: Same State NG 3): 268 nM

Exercise: Answer with the recorded apparent KD of MS2 coat protein of GCGAGCGUACUUGCUACAUGAGGAUCACCCAUGUUCGUUGGACAGGAUAUGGUACCGUUUCGGUACCAGAAGGGUUCACAUGUA [JL SSNG3 3.77] (Eterna round: R96, puzzle: Same State NG 3) only.
Solution: 375 nM

====

System: MS2 coat protein
Experiment: apparent KD of MS2 coat protein; designed switch direction (-1 OFF switch, 1 ON switch): -1; higher = weaker reporter binding
Details: input ligand: microRNA oligo, concentration not stated
Exercise: for every item that follows, state its recorded apparent KD of MS2 coat protein.
Give bare numbers, in nM.

UUAUUAUAUGUAGGAUAUGCAUAUUAUUAUUAUGCAGAAGGACAUGAGGAUCACCCAUGUAUGUUGUUAUUAUAUAUUAUAUAU [Title] (Eterna round: R96, puzzle: Exclusion NG 1): 20.6
UUCCUCUCUUCUUUGUCUCACAUGAGGAUCACCCAUGUAACAUAGGAUAUGCUUGGUAUUUAUAUGCAGAAGGAUGUUAGUAUU [JR_ExcNG3_Sub083] (Eterna round: R96, puzzle: Exclusion NG 3): 19
CGGUGUAACGUAGGAUAUCAACGCAACUGACGAUGAGAAGGACGACAUGAGGAUCACCCAUGUGAUUUCUCAAUAUUAUACAUC [Prohibition 86 - Jieux - Exclusion NG 1] (Eterna round: R96, puzzle: Exclusion NG 1): 41.9
UCGAUGCGAGGAUAUACUAAGGCAACUACUGCAGCUCAAAAACAUGAGGAUCACCCAUGUAGAAGGCGCAUAUA [JR_Exc002_Sub304] (Eterna round: R96, puzzle: Exclusion 2): 12.9

Exercise: Answer with the recorded apparent KD of MS2 coat protein of UUUAAUGGAAUUAAGAUCACAUGAGGAUCACCCAUGUAUAUAUAGGAUAUCAGCUCGUGUAGAGCUGAGAAGGAUAUAUACAUA [ExNG3/6-B3] (Eterna round: R96, puzzle: Exclusion NG 3) only.
Solution: 344
